Overview of reported IC50 across a group of compounds:
# Test system: HT1080 cells
# PROTOCOL DESCRIPTION: Cellular assay for IDH1m R132C inhibitors, 2-HG by LC-MS in HT1080 cells
# Format: cell-based
# MEASUREMENT CONDITIONS: Homo sapiens, HT-1080
# Protocol: The following describes the experimental procedures that can be used to obtain data on column 5 of Table 4. Cells (HT1080 or U87MG) are grown in T125 flasks in DMEM containing 10% FBS, 1× penicillin/streptomycin and 500 ug/mL G418 (present in U87MG cells only). […] At 48 hours, 100 ul of media is removed from each well and analyzed by LC-MS for 2-HG concentrations. […] The plate is then read for luminescence with an integration time of 500 ms. […]

# value lookup — system HT1080 cells, readout IC50, item CC(F)(F)c1cccc(-c2nc(NC3CCC(F)(F)C3)nc(NC3CCC(F)(F)C3)n2)n1 (stereo not drawn) [Compound 105]
< 0.05 µM

# value lookup — system HT1080 cells, readout IC50, item Fc1cc(F)cc(Nc2nc(NC3CCC(F)(F)CC3)nc(-c3nc(F)ccc3F)n2)c1 [Compound 260]
> 1 µM

# value lookup — system HT1080 cells, readout IC50, item FC1(F)CCC(Nc2nc(NC3CN(c4cccnc4)C3)nc(-c3cccc(C(F)(F)F)n3)n2)C1 (stereo not drawn) [Compound 243]
0.1 to 1 µM

# value lookup — system HT1080 cells, readout IC50, item FC(F)c1ccnc(-c2nc(NC3CCC(F)(F)C3)nc(NC3CCC(F)(F)C3)n2)n1 (stereo not drawn) [Compound 412]
0.1 to 1 µM

# value lookup — system HT1080 cells, readout IC50, item FC1(F)CC[C@@H](Nc2nc(Nc3ccnc(C(F)(F)F)c3)nc(-c3cncc(C(F)(F)F)n3)n2)C1 [Compound 116]
0.1 to 1 µM

# value lookup — system HT1080 cells, readout IC50, item CC(C)(O)CNc1nc(NC2CCC(F)(F)C2)nc(-c2cccc(C(F)(F)F)n2)n1 (stereo not drawn) [Compound 264]
0.1 to 1 µM

# value lookup — system HT1080 cells, readout IC50, item N#CC1(c2cc(Nc3nc(NC4CCC(F)(F)CC4)nc(-c4cncc(C(F)(F)F)n4)n3)ccn2)CC1 [Compound 394]
0.1 to 1 µM

# value lookup — system HT1080 cells, readout IC50, item C[C@@H](Nc1nc(N[C@H](C)C2CC2)nc(-c2cccc(C(F)(F)F)n2)n1)C1CC1 [Compound 2]
< 0.05 µM

# value lookup — system HT1080 cells, readout IC50, item CC(=O)N1CCC(Nc2nc(NC3CCC(F)(F)CC3)nc(-c3cccc(C(F)(F)F)n3)n2)CC1 [Compound 273]
> 1 µM

* * *

# Tested on: HT1080 cells
# PROTOCOL DESCRIPTION: Cellular assay for IDH1m R132C inhibitors, 2-HG by LC-MS in HT1080 cells
# Type: cell-based
# MEASUREMENT CONDITIONS: Homo sapiens, HT-1080
pIC50: −log10 of the molar value.
PROPERTY: pIC50

Field: example entries. Status: answers known.
[
  {
    "MOLECULE": "FC1(F)CCC(Nc2nc(NC3CCC(F)(F)C3)nc(-c3ccnc(C(F)(F)F)n3)n2)C1 (stereo not shown)",
    "TESTED ON": "HT1080 cells",
    "pIC50": "7.00 to 7.30"
  },
  {
    "MOLECULE": "Fc1cc(F)cc(Nc2nc(NC3CCC(F)(F)C3)nc(-c3cccc(C(F)(F)F)n3)n2)c1 (stereo not shown)",
    "TESTED ON": "HT1080 cells",
    "pIC50": "6.00 to 7.00"
  },
  {
    "MOLECULE": "FC1(F)CCC(Nc2nc(Nc3ccnc(-c4ccccc4)c3)nc(-c3cccc(C(F)(F)F)n3)n2)CC1",
    "TESTED ON": "HT1080 cells",
    "pIC50": "6.00 to 7.00"
  },
  {
    "MOLECULE": "N#CC1(c2cc(Nc3nc(N[C@@H]4CCC(F)(F)C4)nc(-c4cncc(C(F)(F)F)n4)n3)ccn2)CC1",
    "TESTED ON": "HT1080 cells",
    "pIC50": "7.00 to 7.30"
  },
  {
    "MOLECULE": "CC(C)[C@@H](C)Nc1nc(N[C@H](C)C(C)C)nc(-c2cccc(C(F)(F)F)n2)n1",
    "TESTED ON": "HT1080 cells",
    "pIC50": "7.00 to 7.30"
  },
  {
    "MOLECULE": "CC[C@@H](Nc1nc(N[C@H](CC)C(F)(F)F)nc(-c2cccc(Cl)n2)n1)C(F)(F)F",
    "TESTED ON": "HT1080 cells",
    "pIC50": "> 7.30"
  }
]

// next entry
Returns the measured pIC50 for the input molecule. Input: CC(F)(F)c1cccc(-c2nc(Nc3ccnc(C4(C#N)CC4)c3)nc(NC3CCC(F)(F)CC3)n2)n1
6.00 to 7.00

* * *

Overview of reported IC50 across a group of compounds:
# Tested on: U87MG pLVX-IDH2 R140Q-neo cells
# PROTOCOL DESCRIPTION: U87MG pLVX-IDH2 R140Q-neo cell based assay, 2-HG by LC-MS
# MEASUREMENT CONDITIONS: Homo sapiens, U-87 MG

[
  {
    "COMPOUND": "CC(C)CNc1nc(NCC(C)C)nc(-c2cccc(N)n2)n1 [Compound 74]",
    "IC50": "50 to 100 nM"
  },
  {
    "COMPOUND": "C[C@@H](Nc1nc(N[C@H](C)C2CC2)nc(-c2cccc(N)n2)n1)C1CC1 [Compound 285]",
    "IC50": "> 1000 nM"
  },
  {
    "COMPOUND": "FC1(F)CC(Nc2nc(NC3CC(F)(F)C3)nc(-c3cccc(C(F)(F)F)n3)n2)C1 [Compound 149]",
    "IC50": "< 50 nM"
  },
  {
    "COMPOUND": "CC[C@H](Nc1nc(N[C@@H](CC)C(F)(F)F)nc(-c2cccc(Cl)n2)n1)C(F)(F)F [Compound 180]",
    "IC50": "100 to 1000 nM"
  }
]

// next entry
Returns the measured IC50 for the input compound. Input: CC(C)(O)CNc1nc(Nc2cc(F)cc(F)c2)nc(-n2ccc(C(F)(F)F)n2)n1 [Compound 235]
< 50 nM

* * *

# TESTED ON: IDH2 R140Q (Homo sapiens (Human), UniProt P48735, R140Q)
# Sequence (P48735 40-452 R140Q): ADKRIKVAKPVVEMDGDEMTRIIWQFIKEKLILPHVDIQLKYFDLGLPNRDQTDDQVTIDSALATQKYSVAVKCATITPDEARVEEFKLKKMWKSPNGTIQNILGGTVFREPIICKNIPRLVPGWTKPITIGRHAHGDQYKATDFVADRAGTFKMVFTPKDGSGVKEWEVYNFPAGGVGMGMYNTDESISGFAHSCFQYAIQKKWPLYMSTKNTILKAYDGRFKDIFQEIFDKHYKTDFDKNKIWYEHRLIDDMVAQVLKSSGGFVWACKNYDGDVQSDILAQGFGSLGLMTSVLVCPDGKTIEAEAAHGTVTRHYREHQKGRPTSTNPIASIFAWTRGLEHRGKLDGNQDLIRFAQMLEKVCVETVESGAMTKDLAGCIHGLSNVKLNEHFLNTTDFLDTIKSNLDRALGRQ
# PROTOCOL DESCRIPTION: In vitro assay for IDH2m R140Q inhibitors, cofactor depletion assay, 16 hr preincubation with NADPH/NADP
# Format: biochemical
# MEASUREMENT CONDITIONS: read-out: IDH2 R140Q 16 hr NADPH/NADP IC50; 16 hrs preincubation with enzyme, 5 uM NADPH and 750 uM NADP
pIC50: −log10 of the molar value.
Overview of reported pIC50 across a group of compounds:

Field: example entries. Status: answers known.
[
  {
    "COMPOUND": "CC(Nc1nc(N[C@H](C)C2CC2)nc(-c2cccc(C(F)(F)F)n2)n1)C(F)(F)F (stereo partly drawn) [Compound 203]",
    "pIC50": "> 7.30"
  },
  {
    "COMPOUND": "FC1(F)CCC(Nc2nc(NC3CCN(Cc4ccccc4)C3)nc(-c3cccc(C(F)(F)F)n3)n2)C1 (stereo not drawn) [Compound 280]",
    "pIC50": "6.00 to 7.00"
  },
  {
    "COMPOUND": "N#CC1(c2cc(Nc3nc(NC4CCC(F)(F)C4)nc(-c4cccc(Cl)n4)n3)ccn2)CC1 (stereo not drawn) [Compound 127]",
    "pIC50": "> 7.30"
  },
  {
    "COMPOUND": "CC(C)(O)CNc1nc(Nc2cccc(Cl)c2)nc(-c2cccc(C(F)(F)F)n2)n1 [Compound 248]",
    "pIC50": "> 7.30"
  },
  {
    "COMPOUND": "O=C(c1ccccc1)N1CCC(Nc2nc(NC3CCC(F)(F)C3)nc(-c3cccc(C(F)(F)F)n3)n2)C1 (stereo not drawn) [Compound 263]",
    "pIC50": "6.00 to 7.00"
  }
]

// next entry
Returns the measured pIC50 for the input compound. Input: CC(=O)N1CCC(Nc2nc(NC3CCC(F)(F)CC3)nc(-c3cccc(C(F)(F)F)n3)n2)CC1 [Compound 273]
< 6.00

* * *

# TESTED ON: IDH1 wt/IDH1 R132H heterodimer (Homo sapiens (Human), UniProt O75874, R132H)
# Sequence (O75874 whole entry R132H): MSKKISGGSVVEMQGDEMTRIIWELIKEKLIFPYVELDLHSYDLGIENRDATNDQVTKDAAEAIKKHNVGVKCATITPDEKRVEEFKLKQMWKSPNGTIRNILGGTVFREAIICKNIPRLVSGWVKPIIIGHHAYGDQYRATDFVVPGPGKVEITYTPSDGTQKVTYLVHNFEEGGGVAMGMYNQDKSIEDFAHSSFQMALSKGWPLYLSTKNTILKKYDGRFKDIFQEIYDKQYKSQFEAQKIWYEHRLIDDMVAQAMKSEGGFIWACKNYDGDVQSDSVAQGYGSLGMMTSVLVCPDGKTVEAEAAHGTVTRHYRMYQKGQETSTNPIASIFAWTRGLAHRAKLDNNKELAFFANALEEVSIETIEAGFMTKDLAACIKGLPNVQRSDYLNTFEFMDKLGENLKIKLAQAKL
# Sequence (O75874 whole entry, stated change not applied): as the sequence (O75874 whole entry R132H) above, with H132R counted along it
# PROTOCOL DESCRIPTION: In vitro assay for IDH1m R132H inhibitors, IDH1 wt/IDH1 R132H heterodimer, NADPH depletion (diaphorase/resazurin)
# Type: biochemical
# MEASUREMENT CONDITIONS: IDH1 wt/R132H heterodimer, NADPH/NADP, not saturated; read-out: IDH1 wt/R132H NADPH/NADP IC50 not saturated
PROPERTY: IC50

[
  {
    "MOLECULE": "C[C@@H](Nc1cc(NC2CCC(F)(F)CC2)nc(-c2cccc(Cl)n2)n1)C(F)(F)F",
    "IC50": "50 to 100 nM"
  },
  {
    "MOLECULE": "CC(C)(C)Nc1nc(Nc2cccc(C#N)c2)nc(-c2cccc(C(F)(F)F)n2)n1",
    "IC50": "< 50 nM"
  },
  {
    "MOLECULE": "CC(C)(O)CNc1nc(Nc2cc(F)cc(F)c2)nc(-c2nccc(C(F)(F)F)n2)n1",
    "IC50": "> 1000 nM"
  },
  {
    "MOLECULE": "Fc1cc(F)cc(Nc2nc(NC3CCC(F)(F)CC3)nc(-c3nc(F)ccc3F)n2)c1",
    "IC50": "100 to 1000 nM"
  },
  {
    "MOLECULE": "CC(Nc1nc(Nc2ccnc(C3(C#N)CC3)c2)nc(-c2cccc(Cl)n2)n1)C(F)(F)F (centres unmarked)",
    "IC50": "< 50 nM"
  },
  {
    "MOLECULE": "Cc1cc(-c2nc(NC3CCC(F)(F)CC3)nc(NC3CCC(F)(F)CC3)n2)no1",
    "IC50": "> 1000 nM"
  }
]

# value lookup — system IDH1 wt/IDH1 R132H heterodimer (Homo sapiens (Human), UniProt O75874, R132H), readout IC50, item FC1(F)CC[C@@H](Nc2nc(N[C@H]3CCC(F)(F)C3)nc(-c3cccc(C(F)(F)F)n3)n2)C1
< 50 nM

# value lookup — system IDH1 wt/IDH1 R132H heterodimer (Homo sapiens (Human), UniProt O75874, R132H), readout IC50, item Oc1ccc(F)c(-c2nc(NC3CCC(F)(F)CC3)nc(NC3CCC(F)(F)CC3)n2)n1
> 1000 nM
